The measurements presented in this section are drawn from patent US20210095032A1.

- ASSAYED_TARGET: T1, biotin-labeled human PD-1 Fc protein (human, biotin-labeled (site not stated))
- T1 construct: also called PD-1-Fc-biotin
- T1 sequence (chain, as listed by the source limits assumed): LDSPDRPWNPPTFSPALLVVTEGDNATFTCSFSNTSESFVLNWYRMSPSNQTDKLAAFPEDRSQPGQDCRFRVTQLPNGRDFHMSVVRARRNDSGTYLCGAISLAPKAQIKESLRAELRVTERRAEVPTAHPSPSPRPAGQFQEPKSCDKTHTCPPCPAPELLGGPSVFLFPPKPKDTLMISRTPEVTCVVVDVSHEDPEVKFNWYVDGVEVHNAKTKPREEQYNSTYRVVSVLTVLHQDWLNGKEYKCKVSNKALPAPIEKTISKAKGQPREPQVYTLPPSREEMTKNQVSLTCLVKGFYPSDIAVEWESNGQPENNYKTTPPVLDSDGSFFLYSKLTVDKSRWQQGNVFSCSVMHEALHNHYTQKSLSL
- EXPERIMENTAL_PROTOCOL: capture ELISA, antibody captured on plate, biotin-labeled human PD-1 Fc in solution
- Experimental: Plates were washed 4 times with wash buffer (PBS+0.05% Tween-20, PBST) and then blocked with 200 μl/well blocking buffer (5% w/v non-fatty milk in PBST) for 2 hours at 37° C. […] After a final wash, plates were incubated with 100 μl/well ELISA substrate TMB (Innoreagents). The reaction was stopped in 15 minutes at 25° C. with 50 μl/well 1M H₂SO₄, and the absorbance was read at 450 nm. Data were analyzed using Graphpad Prism software and EC₅₀ values were reported.
For each entry below, report its EC50 value.
Give bare numbers, in ng/mL.

mouse anti-PD-1 monoclonal antibody D2H3 (antibody, V domains shown, Mouse antibody purified from a hybridoma; also called Mouse D2H3; mouse D2H3) VH: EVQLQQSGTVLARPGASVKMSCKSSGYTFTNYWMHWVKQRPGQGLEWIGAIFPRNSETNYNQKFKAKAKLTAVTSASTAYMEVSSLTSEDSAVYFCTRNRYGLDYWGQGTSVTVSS VL: DIVLTQSPGFLAVSLGQRATISCRASESVSLHGTRLMHWYHQKPGQPPKLLISLGSNLESGVPARFSGSGSETDFTLNIHPVEEEDAATYFCQQSIEDPWTFGGGTKLEIK :: 0.388

Next up:
The reported EC50 of the binder huD2H3-V12 (antibody, human IgG1, kappa, V domains shown, Humanized D2H3, human IgG1/kappa; also called huPD1-D2H3-V12) VH: EVQLVQSGAEVKKPGSSVKVSCKASGYTFTNYWMHWVRQAPGQGLEWMGAIFPRNSETNYNQKFKARVTITADESTSTAYMELSSLRSEDTAVYYCTRNRYGLDYWGQGTLVTVSS VL: DIVLTQSPDSLAVSLGERATINCRASESVSLHGTRLMHWYQQKPGQPPKLLISLGSNLESGVPDRFSGSGSETDFTLTISSLQAEDVAVYFCQQSIEDPWTFGQGTKLEIKR was 0.354
